B1: 6YSE (parent)
chain: HERALMVNRLQKLTRMLRVHPDPKWKQEQQELIKRLK

Variants of: B1
method notes: folding stability dG (cDNA display proteolysis); higher = more stable
condition: PBS, room temperature
measured parameter: folding stability dG (kcal/mol)
Return type: number; implicit unit kcal/mol.

variant R15H , folding stability dG observed: 1.12

variant L36I , folding stability dG observed: 0.873

variant V19F , folding stability dG observed: 1.51

variant Q11M , folding stability dG observed: 1.73

variant K12M , folding stability dG observed: 1.49

variant K37F , folding stability dG observed: 1.68

variant Q11N , folding stability dG observed: 1.34

variant E2Y , folding stability dG observed: 1.32

variant R15E , folding stability dG observed: 1.42

variant K34W , folding stability dG observed: 0.902

variant R15V , folding stability dG observed: 0.95

variant K12A , folding stability dG observed: 1.36

variant K37M , folding stability dG observed: 1.7

variant R35M , folding stability dG observed: 0.84

variant E2V , folding stability dG observed: 1.23

variant R3H , folding stability dG observed: 1.18

variant K34A , folding stability dG observed: 1.37

variant E28R , folding stability dG observed: -0.089

variant P23I , folding stability dG observed: 0.608

variant V19H , folding stability dG observed: 1.38

variant L5H , folding stability dG observed: 1.61
